system: HeLa; assay: Inhibition of PAR polymer formation in H2O2-stimulated human HeLa cells; format: functional, cell-based
parameter: pEC50
API: returns pEC50 as number; meaning -log10 of concentration in mol/L.

Requested field: pEC50. Item: CN1CCCN(C(=O)c2cc3[nH]c(=O)c4ccccc4n3n2)CC1
5.41

###

Reported IC50 values, UniProt:P09874.
Sequence (P09874 whole entry): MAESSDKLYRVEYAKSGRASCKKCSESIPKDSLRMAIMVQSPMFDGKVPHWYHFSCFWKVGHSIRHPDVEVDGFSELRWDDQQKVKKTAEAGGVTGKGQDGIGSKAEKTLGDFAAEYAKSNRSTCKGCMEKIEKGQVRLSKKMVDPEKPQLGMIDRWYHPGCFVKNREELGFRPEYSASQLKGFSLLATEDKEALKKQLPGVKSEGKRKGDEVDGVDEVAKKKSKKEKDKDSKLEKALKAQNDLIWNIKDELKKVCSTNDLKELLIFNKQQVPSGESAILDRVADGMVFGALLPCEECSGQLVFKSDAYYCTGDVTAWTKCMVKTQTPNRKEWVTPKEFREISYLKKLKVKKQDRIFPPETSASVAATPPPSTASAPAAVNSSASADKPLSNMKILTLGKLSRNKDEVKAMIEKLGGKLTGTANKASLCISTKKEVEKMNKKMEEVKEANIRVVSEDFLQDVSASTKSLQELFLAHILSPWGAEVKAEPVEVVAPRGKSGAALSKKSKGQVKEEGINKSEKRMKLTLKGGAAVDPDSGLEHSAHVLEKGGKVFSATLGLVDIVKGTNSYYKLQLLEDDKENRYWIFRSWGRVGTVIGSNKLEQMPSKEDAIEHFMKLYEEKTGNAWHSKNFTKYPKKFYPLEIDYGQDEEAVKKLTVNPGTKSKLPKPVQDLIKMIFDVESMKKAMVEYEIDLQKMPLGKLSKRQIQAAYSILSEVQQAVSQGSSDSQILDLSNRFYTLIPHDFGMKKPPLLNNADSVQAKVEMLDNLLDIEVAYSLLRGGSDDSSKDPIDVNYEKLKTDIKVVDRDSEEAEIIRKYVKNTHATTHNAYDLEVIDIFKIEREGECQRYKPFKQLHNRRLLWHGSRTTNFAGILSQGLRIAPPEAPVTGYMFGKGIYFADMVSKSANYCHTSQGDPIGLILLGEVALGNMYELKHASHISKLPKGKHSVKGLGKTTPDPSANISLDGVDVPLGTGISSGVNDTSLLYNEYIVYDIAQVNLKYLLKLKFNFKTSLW

Entry CN1CCN(C(=O)c2cc3[nH]c(=O)c4ccccc4n3n2)CC1 has what IC50?
300 nM

Let us now turn to CN1CCN(C(=O)c2cnn3c2[nH]c(=O)c2ccccc23)CC1
> 1000 nM

Param item: O=C(c1cccc(-c2cc3[nH]c(=O)c4ccccc4n3n2)c1)N1CCN2CCC[C@H]2C1
500 nM
